Measured IC50, listed per entry.
# TESTED TARGET: human DGAT2 (Homo sapiens)
# Sequence (Q96PD7 whole entry): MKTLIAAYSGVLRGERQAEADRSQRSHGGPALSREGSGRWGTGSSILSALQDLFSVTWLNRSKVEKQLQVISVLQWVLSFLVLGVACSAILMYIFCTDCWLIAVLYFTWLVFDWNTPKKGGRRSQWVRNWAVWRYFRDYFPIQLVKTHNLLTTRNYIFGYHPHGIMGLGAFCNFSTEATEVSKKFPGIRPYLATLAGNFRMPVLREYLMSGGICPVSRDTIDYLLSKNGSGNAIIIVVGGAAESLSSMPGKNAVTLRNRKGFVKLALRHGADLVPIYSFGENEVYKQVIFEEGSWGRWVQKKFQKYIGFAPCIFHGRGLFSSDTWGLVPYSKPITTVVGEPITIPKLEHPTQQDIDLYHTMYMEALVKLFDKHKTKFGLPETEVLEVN
# TEST PROTOCOL: Diacylglycerol Acyltransferase 2 (DGAT2) Biochemical Assay
# Set-up: FLAG (N); made in house; host or cells: insect SF9 cells
# STUDY CONDITIONS: recombinant human DGAT2 (FLAG tag, SF9), 14C oleoyl-CoA, 1 hr RT; geometric mean
Note to self: number, then unit, no commentary.

GET /value?item= Cc1nc(CNc2ncc(Cl)cn2)cc(Oc2ccc(CS(N)(=O)=O)cc2)n1 &field=IC50 returns 0.12 µM

GET /value?item= CNS(=O)(=O)Cc1ccc(Oc2cc(CNc3ncc(Cl)cn3)nc(C)n2)cc1 &field=IC50 returns 0.091 µM
